Items are presented alongside their recorded kon.
Molecular target: T1, extracellular domain (ECD) of human αKlotho, amino acids E34-S981 with C-terminal 6-His tag (R&D Systems … (human, UniProt Q9UEF7 34-981))
T1 construct: range 34-981; also called αKlotho (aa34-981); target antigen
T1 sequence: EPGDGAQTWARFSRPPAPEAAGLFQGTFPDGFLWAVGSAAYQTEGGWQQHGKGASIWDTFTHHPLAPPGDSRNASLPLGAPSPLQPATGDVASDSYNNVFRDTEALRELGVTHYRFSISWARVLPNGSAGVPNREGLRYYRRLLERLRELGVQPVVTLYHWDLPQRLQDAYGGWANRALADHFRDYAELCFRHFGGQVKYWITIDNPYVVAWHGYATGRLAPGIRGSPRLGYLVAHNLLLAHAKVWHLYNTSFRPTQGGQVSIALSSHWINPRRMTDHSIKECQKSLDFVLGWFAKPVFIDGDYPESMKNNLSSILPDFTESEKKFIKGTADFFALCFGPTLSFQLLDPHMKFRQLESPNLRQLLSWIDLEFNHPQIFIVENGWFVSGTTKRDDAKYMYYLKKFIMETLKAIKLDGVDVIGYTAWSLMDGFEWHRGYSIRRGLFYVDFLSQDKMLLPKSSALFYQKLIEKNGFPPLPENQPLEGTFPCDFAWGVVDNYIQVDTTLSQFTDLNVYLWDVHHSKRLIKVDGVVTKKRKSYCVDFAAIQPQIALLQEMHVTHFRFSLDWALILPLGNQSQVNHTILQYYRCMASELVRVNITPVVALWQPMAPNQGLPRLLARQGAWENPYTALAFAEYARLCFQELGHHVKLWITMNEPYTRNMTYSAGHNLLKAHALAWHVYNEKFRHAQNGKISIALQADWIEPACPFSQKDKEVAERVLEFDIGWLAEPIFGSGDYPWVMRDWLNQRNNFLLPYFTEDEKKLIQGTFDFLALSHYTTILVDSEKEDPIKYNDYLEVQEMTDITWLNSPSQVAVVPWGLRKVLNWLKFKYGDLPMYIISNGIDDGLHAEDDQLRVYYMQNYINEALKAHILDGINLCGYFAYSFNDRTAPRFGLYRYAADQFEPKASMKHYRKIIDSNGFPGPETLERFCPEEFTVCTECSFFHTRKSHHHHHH
Assay: SPR, Fab captured by anti-H+L IgG, αKlotho injected at 50 to 6.25 ug/ml, Langmuir fit [continued]

# Binder, kon
measured = [
    ("anti-αKlotho Fab clone 4828 (Fab, V domains shown, Fab (also as Fab-phage); FLAG tag on light chain; also called sb197) VH: EVQLVESGGGLVQPGGSLRLSCAASGFNFSSSSIHWVRQAPGKGLEWVASISSSYGYTYYADSVKGRFTISADTSKNTAYLQMNSLRAEDTAVYYCARYVVGGWWYHYGMDYWGQGTLVTVSS VL: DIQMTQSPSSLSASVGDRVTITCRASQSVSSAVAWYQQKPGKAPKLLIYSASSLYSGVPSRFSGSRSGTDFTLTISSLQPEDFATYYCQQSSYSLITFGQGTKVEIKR", "315000 M⁻¹ s⁻¹"),
    ("anti-αKlotho Fab clone 4830 (Fab, V domains shown, Fab (also as Fab-phage); FLAG tag on light chain; also called sb199) VH: EVQLVESGGGLVQPGGSLRLSCAASGFNIYYSSIHWVRQAPGKGLEWVASIYPYYSYTYYADSVKGRFTISADTSKNTAYLQMNSLRAEDTAVYYCARSVASALDYWGQGTLVTVSS VL: DIQMTQSPSSLSASVGDRVTITCRASQSVSSAVAWYQQKPGKAPKLLIYSASSLYSGVPSRFSGSRSGTDFTLTISSLQPEDFATYYCQQYSWYWYSPITFGQGTKVEIKR", "741000 M⁻¹ s⁻¹"),
]
